Endpoint summary: IC50, system: Glycogen synthase kinase-3 beta (Homo sapiens), multiple sources combined.

Examples with their reported IC50 follow.
CN1CCCc2cc(ccn2)-c2ncnc(n2)Nc2cccc(c2)CNC(=O)C1 | < 0.01 µM
O=C(Nc1cccc(C(F)(F)F)n1)Nc1ccnc2cc(Br)ccc12 | < 0.1 µM
Fc1cc(F)cc(-c2ccnc3[nH]cc(Sc4ccccn4)c23)c1 | ≤ 10 µM

**Query** Tell me the measured IC50 of Cc1cnc(NCCNc2ccccn2)nc1-c1ccc(Cl)cc1 , please.
**Result** ≤ 10 µM

**Query** Reported IC50 for COc1cccc(F)c1C(=O)Nc1c[nH]nc1C(=O)NC1CCNCC1 : what is it?
**Result** < 10 µM

**Query** Suppose we examine the compound O=C(Nc1cnccc1N1CCOCC1)c1ccnn2cc(-c3cccnc3)nc12 ; what IC50 value has been reported?
**Result** 0.0013 µM

**Query** So what does the record say about IC50 for Cc1cc(C)cc(-c2ccnc3[nH]cc(Sc4ccccc4)c23)c1 ?
**Result** ≤ 10 µM

**Query** Look up IC50: Cc1cnc(CNC(=O)c2ccc(-c3ccnc(NCCNc4ccc([N+](=O)[O-])cn4)n3)cc2)cn1
**Result** ≤ 10 µM

**Query** Quick one: IC50 for Cc1cccc(CNC(=O)c2ccc(-c3ccnc(NCCNc4ccc([N+](=O)[O-])cn4)n3)cc2)c1 ?
**Result** ≤ 10 µM

====

pIC50: −log10 of the molar value.
Assay read-out pIC50 on Glycogen synthase kinase-3 beta (Homo sapiens, UniProt P49841); records merged from the literature.

NC(=O)c1ccc(-c2ccnc(NCCCOc3ccc4ncccc4c3)n2)cc1 | ≥ 5.00
CCOC(=O)c1cnc(NCCNc2ccc([N+](=O)[O-])cn2)nc1-c1ccc(OC)c(OC)c1 | ≥ 5.00

**Query** pIC50 of NS(=O)(=O)c1ccc(CNC(=O)c2ccc(-c3ccnc(NCCNc4ccc([N+](=O)[O-])cn4)n3)cc2)cc1 on Glycogen synthase kinase-3 beta (Homo sapiens, UniProt P49841)?
**Result** ≥ 5.00

**Query** Glycogen synthase kinase-3 beta (Homo sapiens, UniProt P49841) / pIC50 / O=C(NCc1cccc(Br)c1)c1ccc(-c2ccnc(NCCNc3ccc(C(F)(F)F)cn3)n2)cc1 : value?
**Result** ≥ 5.00

**Query** Please tell me: pIC50 of Nc1nc(NCCNc2ncc(-c3ccncc3)c(-c3ccc(Cl)cc3Cl)n2)ccc1[N+](=O)[O-] , system Glycogen synthase kinase-3 beta (Homo sapiens, UniProt P49841)?
**Result** ≥ 6.00

**Query** Lab request: please report pIC50 under test system Glycogen synthase kinase-3 beta (Homo sapiens, UniProt P49841) for Oc1[nH]c2ncccc2c1-c1ccc(CN2CCOCC2)cn1
**Result** 4.00 to 5.00

**Query** Enter reported pIC50 observed with Glycogen synthase kinase-3 beta (Homo sapiens, UniProt P49841) for CC(C)(C)C1CCC(NC(=O)c2c[nH]nc2NC(=O)c2c(F)cccc2F)CC1 (centres unmarked)
**Result** > 5.00

**Query** Given the entry COc1cccc(F)c1C(=O)Nc1c[nH]nc1C(=O)NC1CCC(C(C)(C)C)CC1 (centres unmarked) , what pIC50 was observed with Glycogen synthase kinase-3 beta (Homo sapiens, UniProt P49841)?
**Result** > 5.00

**Query** For the record N#Cc1ccc(-c2nc(NCCNc3ccc([N+](=O)[O-])cn3)ncc2C(=O)N2CCOCC2)cc1 , what value of pIC50 is listed for Glycogen synthase kinase-3 beta (Homo sapiens, UniProt P49841)?
**Result** ≥ 6.00

**Query** Request - read-out pIC50 | tested on Glycogen synthase kinase-3 beta (Homo sapiens, UniProt P49841) | compound N#Cc1ccc(NCCNc2nc(-c3ccc(C(F)(F)F)cc3)cc3nc(C(=O)NCCO)cn23)nc1
**Result** 7.03

**Query** Recorded pIC50 for CN1CCN(CCNC(=O)c2cc3c(NCCNc4ccc(C#N)cn4)nc(-c4ccc(Cl)cc4Cl)cn3n2)CC1 with Glycogen synthase kinase-3 beta (Homo sapiens, UniProt P49841), please?
**Result** 7.52

**Query** pIC50 of Nc1cccc2c1ccn1c(=O)cc(-c3ccncc3)nc21 on Glycogen synthase kinase-3 beta (Homo sapiens, UniProt P49841)?
**Result** 6.77

**Query** Give Glycogen synthase kinase-3 beta (Homo sapiens, UniProt P49841) pIC50 for O=C(NCC(c1ccccc1)c1ccccc1)c1ccc(-c2ccnc(NCCNc3ccc([N+](=O)[O-])cn3)n2)cc1
**Result** ≥ 5.00

**Query** # get_value(readout= pIC50, system= Glycogen synthase kinase-3 beta (Homo sapiens, UniProt P49841)) for C[C@H]1COCCN1c1ccncc1NC(=O)c1ccnn2cc(-c3ccccc3)nc12
**Result** 9.52

**Query** Could you share what pIC50 was measured for CCOC(=O)c1cnc(NCCNc2ccc([N+](=O)[O-])cn2)nc1-c1cccc(C#N)c1 , tested on Glycogen synthase kinase-3 beta (Homo sapiens, UniProt P49841)?
**Result** ≥ 5.00

**Query** Recorded pIC50 for Nc1nc(NCCNc2ncc(CO)c(-c3ccc(Cl)cc3Cl)n2)ccc1[N+](=O)[O-] with Glycogen synthase kinase-3 beta (Homo sapiens, UniProt P49841), please?
**Result** ≥ 6.00

**Query** Can you look up pIC50 on Glycogen synthase kinase-3 beta (Homo sapiens, UniProt P49841) for O=C(Nc1c[nH]nc1-c1nc2c(CN3CCOCC3)cccc2[nH]1)c1c(F)cccc1F ?
**Result** > 6.00

**Query** Give pIC50 (Glycogen synthase kinase-3 beta (Homo sapiens, UniProt P49841)) of the following compound: O=c1cc(-c2ccncn2)nc2n(CCc3cccc4ccccc34)ccn12
**Result** 7.68

**Query** Enter reported pIC50 observed with Glycogen synthase kinase-3 beta (Homo sapiens, UniProt P49841) for O=[N+]([O-])c1ccc(NCCNc2ncc(-n3nnc4ccccc43)c(-c3ccc(Cl)cc3Cl)n2)nc1
**Result** ≥ 6.00

**Query** Could you share what pIC50 was measured for CC1(C)CCn2c(nc(-c3ccncn3)cc2=O)N1C[C@@H](O)c1ccc(Cl)cc1 , tested on Glycogen synthase kinase-3 beta (Homo sapiens, UniProt P49841)?
**Result** 8.70

====

// cross-study collection: IC50 for Glycogen synthase kinase-3 beta (Homo sapiens)

The examples below pair each entry with its known result.
CC(C)S(=O)(=O)Nc1ccc(F)c(C(=O)c2c[nH]c3ncc(-c4cccnc4)cc23)c1F | ≤ 10000 nM
COc1cccc(-n2ncc3c(N/N=C/c4cccnc4)ncnc32)n1 | < 100 nM

**Query** Entry under review: CCOC(=O)c1c(CC)nc(NCCNc2ccc(C(F)(F)F)cn2)nc1-c1ccc(C(N)=O)cc1 . Reported IC50?
**Result** ≤ 10000 nM

**Query** Which IC50 is reported for this compound? O=C(Nc1cccc(C(F)(F)F)n1)Nc1ccnc2ccccc12
**Result** < 100 nM

**Query** IC50 for O=C(CCBr)c1c[nH]c2ncccc12 ?
**Result** ≤ 10000 nM

**Query** What does the record list as IC50 for COc1cc(C2=C(c3cn(CCCO)c4ccccc34)C(=O)NC2=O)cc(OC)c1OC ?
**Result** 2250 nM

**Query** Returns the measured IC50 for the input compound. Input: CC(C)(C)C1CCC(NC(=O)c2n[nH]cc2NC(=O)c2ccc(F)cc2)CC1 (stereo not drawn)
**Result** < 10000 nM

**Query** Would you kindly share the measured IC50 for CCOC(=O)c1cnc(NCCNc2ccc([N+](=O)[O-])cn2)nc1-c1ccc(S(N)(=O)=O)cc1 ?
**Result** ≤ 10000 nM

**Query** Reported IC50, compound COCCNc1nc(NCCNc2ccc([N+](=O)[O-])cn2)ccc1[N+](=O)[O-] : ____
**Result** ≤ 10000 nM

**Query** Item CCOc1ccc(-c2cc3nccn3c(NCCNc3ccc([N+](=O)[O-])c(N)n3)n2)cc1 has what recorded IC50?
**Result** 91 nM

**Query** // IC50 lookup, key: NC(=O)c1ccc(-c2ccnc(NCCCOc3ccc(Cl)c(Cl)c3)n2)cc1
**Result** ≤ 10000 nM

====

Note to self: these molecules have pIC50 reported for UniProt P49841 in various publications.
FYI, pIC50 means -log10 of a concentration in mol per litre.

See these solved cases before continuing.
O=C(Nc1cnccc1N1CCCCC1)c1ccnn2ccnc12 | 7.70
CC(=O)Nc1ccc(CCNC(=O)c2ccnc3[nH]c(-c4ccccc4)nc23)cc1 | 7.70
O=C(CN1CCCn2c1nc(-c1ccncc1)c(Br)c2=O)c1ccccc1 | 8.30

**Query** Dear colleague, I am looking for the recorded pIC50 of the following molecule: O=[N+]([O-])c1cccc(-c2ccnc(Nc3cccc(O)c3)n2)c1
**Result** 7.22

**Query** Entry N#Cc1ccc(NCCNc2nc(-c3ccc(C(F)(F)F)cc3)cc3nccn23)nc1 has what pIC50?
**Result** 6.74
